We begin with a simple list: items and their reported log10(IC50).
Molecular target: human dopamine transporter (Homo sapiens (Human), UniProt Q01959)
Sequence (Q01959 whole entry): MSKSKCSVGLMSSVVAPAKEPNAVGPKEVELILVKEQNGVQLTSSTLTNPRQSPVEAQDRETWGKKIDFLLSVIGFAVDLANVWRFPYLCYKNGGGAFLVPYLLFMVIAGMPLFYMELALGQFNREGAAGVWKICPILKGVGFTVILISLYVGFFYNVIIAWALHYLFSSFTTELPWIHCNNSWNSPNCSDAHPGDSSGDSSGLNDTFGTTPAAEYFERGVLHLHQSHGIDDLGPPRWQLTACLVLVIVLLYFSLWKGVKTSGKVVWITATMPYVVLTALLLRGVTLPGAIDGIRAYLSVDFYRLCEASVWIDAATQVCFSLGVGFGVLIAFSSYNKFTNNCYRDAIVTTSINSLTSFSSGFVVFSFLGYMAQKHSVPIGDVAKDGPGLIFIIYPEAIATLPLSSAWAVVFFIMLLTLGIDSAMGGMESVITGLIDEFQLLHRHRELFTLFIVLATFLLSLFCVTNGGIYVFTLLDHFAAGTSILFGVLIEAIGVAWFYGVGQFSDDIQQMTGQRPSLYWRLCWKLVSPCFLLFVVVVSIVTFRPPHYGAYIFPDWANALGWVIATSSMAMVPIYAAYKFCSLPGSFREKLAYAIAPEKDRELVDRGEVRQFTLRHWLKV
Assay: hDAT reuptake assay (HEK-hDAT, FDSS6000)
Assay type: cell-based
Conditions: HEK-hDAT cells; Table 4
Counter-ions that a name gives are not always drawn.
Would you kindly interpret these values as log10 of IC50 expressed in nM?

CCCC(Oc1ccc2ccccc2c1)C1CNC1.Cl (stereo not drawn) [KHG27284, hydrochloride]: 2.85

Please give the measured log10(IC50) for this molecule: Cl.Clc1ccc(C(OC2CCC2)C2CNC2)cc1Cl (stereo not drawn) [KHG27253, hydrochloride]
1.52

# iterate: CN1CC(C(Oc2ccccc2)c2ccc3ccccc3c2)C1 (stereo not drawn)
2.35

# iterate: Cl.Clc1ccc(C(OC2CCCCC2)C2CNC2)cc1Cl (stereo not drawn) [KHG27255, hydrochloride]
1.74

# iterate: Clc1ccc(C(OC2CCCC2)C2CNC2)cc1Cl (stereo not drawn) [KHG27254, hydrochloride]
1.41

# iterate: CC(C)(C)OC(c1ccc(Cl)c(Cl)c1)C1CNC1.Cl (stereo not drawn) [KHG27252, hydrochloride]
2.00

* * *

Molecular target: UniProt:P31645
Test: hSERT binding assay ([3H]Imipramine)
Conditions: read-out: hSERT binding assay %-inhibition (10 uM)
quantityKind: inhibition at 10 µM (%)
The reply should contain only the number, in %.

Example cases with answers are listed next.
Cl.O=C(OC(c1ccccc1)C1CNC1)c1ccccc1 (stereo not shown) [KHG26771, hydrochloride]: 92
CCOC(c1ccc(Cl)c(Cl)c1)C1CNC1.Cl (stereo not shown) [KHG26757, hydrochloride]: 83

Please give the measured inhibition at 10 µM for this compound: Cc1ccccc1OC(c1ccc(Cl)c(Cl)c1)C1CNC1.Cl (stereo not shown) [KHG26774, hydrochloride]
100

# iterate: Cl.Clc1ccc(C(Oc2ccccc2)C2CNC2)cc1 (stereo not shown) [KHG26766, hydrochloride]
98

* * *

Molecular target: human serotonin transporter (Homo sapiens (Human), UniProt P31645)
Sequence (P31645 whole entry): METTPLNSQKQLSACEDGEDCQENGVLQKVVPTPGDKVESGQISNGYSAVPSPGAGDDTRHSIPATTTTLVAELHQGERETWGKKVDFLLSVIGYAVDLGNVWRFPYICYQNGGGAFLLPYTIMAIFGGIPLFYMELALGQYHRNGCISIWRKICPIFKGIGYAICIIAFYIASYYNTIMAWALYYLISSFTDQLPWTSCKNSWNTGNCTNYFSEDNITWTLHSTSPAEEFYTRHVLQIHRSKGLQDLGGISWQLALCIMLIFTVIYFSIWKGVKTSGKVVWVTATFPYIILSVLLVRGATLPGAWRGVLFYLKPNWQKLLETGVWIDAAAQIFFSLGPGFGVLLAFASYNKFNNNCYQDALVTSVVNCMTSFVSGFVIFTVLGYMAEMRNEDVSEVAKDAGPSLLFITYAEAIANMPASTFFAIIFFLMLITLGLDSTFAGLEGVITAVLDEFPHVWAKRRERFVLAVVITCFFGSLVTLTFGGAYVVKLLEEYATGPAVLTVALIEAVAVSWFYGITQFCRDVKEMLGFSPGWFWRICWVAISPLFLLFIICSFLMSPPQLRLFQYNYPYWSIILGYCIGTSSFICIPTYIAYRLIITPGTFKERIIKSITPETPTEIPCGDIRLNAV
Assay: hSERT binding assay ([3H]Imipramine);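 note: displacement of radiolabeled imipramine from the transporter, incubated 30 min at 27 °C in Tris-HCl pH 7.4 with NaCl and KCl, bound radioactivity counted after filtration, nonspecific binding defined with 200 uM imipramine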
Details: 10 uM; membrane from HEK293 cells; read-out: hSERT binding assay %-inhibition (10 uM)
Where a name gives a salt, the structure may show the parent alone.
We begin with a simple list: items and their reported inhibition at 10 µM.
The reply should contain only the number, in %.

Example cases with answers are listed next.
Cc1cccc(OC(c2ccc(Cl)c(Cl)c2)C2CNC2)c1.Cl (stereo not drawn) [KHG26775, hydrochloride]: 99
CCOC(c1ccc(Cl)cc1)C1CNC1.Cl (stereo not drawn) [KHG26754, hydrochloride]: 95
Cl.c1ccc(COC(c2ccccc2)C2CNC2)cc1 (stereo not drawn) [KHG26768, hydrochloride]: 97
Cl.Clc1ccc(C(OCc2ccccc2)C2CNC2)cc1 (stereo not drawn) [KHG26769, hydrochloride]: 100
COC(c1ccc(Cl)c(Cl)c1)C1CNC1.Cl (stereo not drawn) [KHG26756, hydrochloride]: 79
Cc1ccc(OC(c2ccc(Cl)c(Cl)c2)C2CNC2)cc1.Cl (stereo not drawn) [KHG26776, hydrochloride]: 100
COC(c1ccc(Cl)cc1)C1CNC1.Cl (stereo not drawn) [KHG26753, hydrochloride]: 95
Clc1ccc(C(Oc2ccccc2)C2CNC2)cc1Cl (stereo not drawn) [KHG26767, hydrochloride]: 98

Please give the measured inhibition at 10 µM for this molecule: Cl.Clc1ccc(C(OCc2ccccc2)C2CNC2)cc1Cl (stereo not drawn) [KHG26770, hydrochloride]
98
